Entries and their measured hERG current change (%, negative = inhibition) at 10uM follow.
study_system: human ether-à-go-go-related gene (hERG) potassium channel (human, UniProt Q12809);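 also: peak tail current of the secondary pulse compared with the same well before compound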
Sequence (Q12809 whole entry, looked up): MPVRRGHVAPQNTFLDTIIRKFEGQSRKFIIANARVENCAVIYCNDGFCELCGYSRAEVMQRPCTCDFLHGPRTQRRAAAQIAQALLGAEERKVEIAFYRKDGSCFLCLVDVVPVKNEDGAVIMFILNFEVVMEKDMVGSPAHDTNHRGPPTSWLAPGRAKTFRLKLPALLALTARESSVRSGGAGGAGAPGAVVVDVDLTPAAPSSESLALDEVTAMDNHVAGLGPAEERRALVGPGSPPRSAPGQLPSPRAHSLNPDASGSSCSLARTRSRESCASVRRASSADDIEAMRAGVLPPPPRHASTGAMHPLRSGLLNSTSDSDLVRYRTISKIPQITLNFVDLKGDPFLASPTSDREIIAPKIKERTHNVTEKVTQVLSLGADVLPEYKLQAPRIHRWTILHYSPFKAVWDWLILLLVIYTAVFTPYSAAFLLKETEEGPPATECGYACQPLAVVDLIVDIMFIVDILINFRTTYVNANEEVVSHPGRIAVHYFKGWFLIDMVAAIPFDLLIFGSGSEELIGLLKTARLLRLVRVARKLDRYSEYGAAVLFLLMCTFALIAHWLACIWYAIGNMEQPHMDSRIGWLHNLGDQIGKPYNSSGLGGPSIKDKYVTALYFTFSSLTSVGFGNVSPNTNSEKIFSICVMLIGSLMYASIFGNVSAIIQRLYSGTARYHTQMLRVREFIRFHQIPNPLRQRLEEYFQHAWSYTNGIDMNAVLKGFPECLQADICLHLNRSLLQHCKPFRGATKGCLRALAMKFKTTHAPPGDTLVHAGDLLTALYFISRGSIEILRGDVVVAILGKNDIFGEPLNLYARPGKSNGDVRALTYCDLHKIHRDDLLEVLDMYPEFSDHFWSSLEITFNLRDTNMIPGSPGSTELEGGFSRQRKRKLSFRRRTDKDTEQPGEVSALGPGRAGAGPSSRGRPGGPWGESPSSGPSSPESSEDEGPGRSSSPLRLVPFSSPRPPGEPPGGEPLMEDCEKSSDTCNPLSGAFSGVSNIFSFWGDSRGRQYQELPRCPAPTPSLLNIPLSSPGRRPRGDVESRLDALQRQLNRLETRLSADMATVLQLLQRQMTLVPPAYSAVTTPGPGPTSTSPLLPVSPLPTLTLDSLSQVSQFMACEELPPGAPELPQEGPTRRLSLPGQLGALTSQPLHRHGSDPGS
measurement_notes: primary screen, population patch clamp on CHO cells stably expressing hERG; higher = less effect of the substance
Hit rate of the full screen: of about 310,000 compounds, about 14,000 (4.5%) showed an effect of 50% or more. Effects have a minus sign here. The entries come from a sample that favours strong results as a whole.
The reply should be a number in %, with the unit left off.

CC(Oc1ccc2c(-c3ccccc3)cc(=O)oc2c1)C(=O)NCc1ccccn1 (stereo not drawn) = -50.9
COC(=O)C(C)Oc1ccc2c(-c3cccc([N+](=O)[O-])c3)cc(=O)oc2c1 (stereo not drawn) = -25.8
Cc1cc(C)n2ncnc2n1 = 2.2

Query hERG current change (%, negative = inhibition) at 10uM on human ether-à-go-go-related gene (hERG) potassium channel (human, UniProt Q12809) for "CCOc1ccc(OCC(=O)Nc2ccc(S(=O)(=O)Nc3cc(C)nc(C)n3)cc2)cc1"
16.4

// map Nc1c(Cl)cc(-c2csc(N3CCCC3c3nc4cc(Cl)c(Cl)cc4n3CCOCCO)n2)cc1Cl (stereo not drawn) to recorded hERG current change (%, negative = inhibition) at 10uM (system: human ether-à-go-go-related gene (hERG) potassium channel (human, UniProt Q12809));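 also: peak tail current of the secondary pulse compared with the same well before compound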
-0.601

Under human ether-à-go-go-related gene (hERG) potassium channel (human, UniProt Q12809): hERG current change (%, negative = inhibition) at 10uM value of "Cc1cccc(NC(=O)CSCC(=O)N=c2sccn2C)c1" ?
-20.2

Reported hERG current change (%, negative = inhibition) at 10uM for human ether-à-go-go-related gene (hERG) potassium channel (human, UniProt Q12809), given COc1ccc(-c2cc(=O)oc3c(C)c(OC(C)C(=O)NCc4ccccn4)ccc23)cc1 (stereo not drawn) ?
-9.16

Which measured hERG current change (%, negative = inhibition) at 10uM belongs to Cc1cc(=O)oc2cc(OC(C)C(=O)NCc3ccccn3)ccc12 (stereo not drawn) , tested on human ether-à-go-go-related gene (hERG) potassium channel (human, UniProt Q12809)?;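 also: peak tail current of the secondary pulse compared with the same well before compound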
9.03

# returns recorded hERG current change (%, negative = inhibition) at 10uM (system: human ether-à-go-go-related gene (hERG) potassium channel (human, UniProt Q12809)) for "COc1ccc(-c2cc(=O)oc3cc(OCC(=O)NCc4ccccn4)ccc23)cc1"
-6.52

Hey, just so you know, these numbers are from paper PMC4336329.
